test: physchem; details: pH 7.4 buffer
solubility thermodynamic of 10 µM or higher: T. Under 10 µM: F.

(Q) Check the entry C[C@H]1C[C@@H](NS(=O)(=O)c2cc(Br)ccc2Br)CN1C#N : does solubility thermodynamic equal or exceed 10 µM?
(A) T

(Q) API: above_or_equal(metric=solubility thermodynamic, cutoff=10 µM) for item N#Cc1ccccc1COc1cc(OCCCN2CCCC2)ccc1C(=O)Nc1ccccc1
(A) T

(Q) Given CN1CCN(S(=O)(=O)c2ccc(-c3cnc(N)c(C(=O)Nc4cccnc4)n3)cc2F)CC1 , state whether its solubility thermodynamic is at least 10 µM.
(A) F

(Q) Identify whether the reported solubility thermodynamic of the following molecule is 10 µM or greater: O=S(=O)(Nc1ccccn1)c1ccc(C2CCCCC2)cc1
(A) F

(Q) Exam item: decide whether the reported solubility thermodynamic for CNC(=O)[C@H](Cc1ccccc1)NC(=O)[C@H](CC(C)C)[C@H](CSc1ccccc1)C(=O)NO is at least 10 µM.
(A) T

(Q) Can O=C(Nc1ccccc1)c1ccc(OCCCN2CCCC2)cc1OCc1ccccc1F be said to have solubility thermodynamic at or above 10 µM?
(A) T

(Q) Test whether the molecule COc1ccccc1C(=O)Nc1ccc(C)c(-n2cnc3ccc(N4CCN(C)CC4)cc3c2=O)c1 records solubility thermodynamic of 10 µM or higher.
(A) T

(Q) // inclusive: solubility thermodynamic at least 10 µM? input: N#Cc1c(-c2ccc(-c3ccccc3OC(F)(F)F)cc2)nc2ccncc2c1O
(A) F

(Q) Exam item: decide whether the reported solubility thermodynamic for CC(C)Oc1cc(OCCN2CCOCC2)cc2ncnc(Nc3c(Cl)ccc4c3OCO4)c12 is at least 10 µM.
(A) F

(Q) Could you verify whether the entry COc1cc2c(Nc3ncc(CC(=O)Nc4cccc(F)c4)s3)ncnc2cc1OCCCN1CCC(CO)CC1 shows solubility thermodynamic of no less than 10 µM?
(A) T

* * *

experiment: physchem
Record form. Attribute: pKa. Fill in for each entry.
Give the figure only, with no unit attached.

(Q) Read off the recorded pKa for OCc1ccnc2c(O)cccc12
(A) 9.45

(Q) Input CCC(CC)NC(=O)c1nnn(-c2ccccc2)c1NS(=O)(=O)c1ccc(C)cc1 , output reported pKa.
(A) 3.3

(Q) Complete the entry with pKa for O=C(O)c1cc(O)cc(Cl)c1
(A) 3.81

* * *

test: in vitro; conditions: human, plasma, PPB
Experimental Endpoint: fraction unbound at 5 h
Output spec: single numeric token, no unit.

(Q) Please indicate fraction unbound at 5 h recorded for COc1ccc(C2(c3cccc(-c4cncnc4)c3)N=C(C)C(N)=N2)cc1C (stereo not given)
(A) 0.062

(Q) In one line, give reported fraction unbound at 5 h of the entry N=C(N)c1cc2c(-c3ccccc3)cccc2s1 .
(A) 0.101

(Q) Hello, please tell me recorded fraction unbound at 5 h for this one: CN(C)C(=O)[C@H](O)[C@H](Cc1ccccc1)NC(=O)c1cc2cc(Cl)ccc2[nH]1
(A) 0.0219

(Q) Name the recorded fraction unbound at 5 h of the compound listed here: CCCS(=O)(=O)N1N=Cc2cc(Cl)ccc2B1O
(A) 0.17

(Q) Dear colleague, please send me the reported fraction unbound at 5 h for N[C@@H](CC(=O)N1CCn2c(nnc2C(F)(F)F)C1)Cc1cc(F)c(F)cc1F [SITAGLIPTIN] when you can.
(A) 0.768

(Q) Item CN(C)S(=O)(=O)NC(=O)CCCc1c(-c2ccc(F)cc2)[nH]c2ccc(C#N)cc12 : provide fraction unbound at 5 h
(A) 0.0041

(Q) Give the measured fraction unbound at 5 h for O=C(NCC1CCCCN1)c1cc(OCC(F)(F)F)ccc1OCC(F)(F)F (stereo not given) [FLECAINIDE]
(A) 0.619

(Q) Using known records, supply fraction unbound at 5 h for CC(NCCC(c1ccccc1)c1ccccc1)c1ccccc1 (stereo not given) [FENDILINE]
(A) 0.0116

(Q) Please report fraction unbound at 5 h for the following compound: COc1ccc(OC)c(CNC(=O)c2cccnc2Oc2ccccc2)c1
(A) 0.002

(Q) Identify the reported fraction unbound at 5 h for the following entry. CCCC(C)(C)C[C@H](c1ccc(C(=O)O)c(Oc2cccc(Cl)c2)c1)N1CCC[C@H](n2cc(C)c(=O)[nH]c2=O)C1
(A) 0.0099
